Where do the numbers come from? From patent US20260176289A1.

Target: KRAS-G12D (Homo sapiens, UniProt P01116, G12D)
Sequence (P01116 with tags, fused parts or gaps isoform P01116-2 G12D): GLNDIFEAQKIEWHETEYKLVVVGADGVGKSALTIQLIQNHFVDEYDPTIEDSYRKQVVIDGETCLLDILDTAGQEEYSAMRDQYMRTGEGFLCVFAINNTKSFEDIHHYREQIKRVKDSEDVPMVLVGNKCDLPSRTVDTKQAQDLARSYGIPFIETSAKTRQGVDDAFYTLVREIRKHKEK
Assay: SOS-catalyzed nucleotide exchange assay (Procedure A, TR-FRET), KRAS-G12D
Format: biochemical
Details: nucleotide exchange, read-out: KRAS G12D GNE IC50
Catalogue of molecules with associated IC50
propertyName: IC50 (nM)

INSERT INTO assay_data (molecule, targetdesc, unit, testresult) VALUES
  ('Cc1cc2[nH]nc(C#N)c2c(-c2nccc3c2sc2nc(OC[C@@]45CCCN4C[C@H](F)C5)nc(N4CCOC[C@@](C)(O)C4)c23)c1C(F)(F)F [Ex-150]', 'KRAS-G12D (Homo sapiens, UniProt P01116, G12D)', 'nM', 1210),
  ('Cc1cc2[nH]ncc2c(-c2nccc3c2sc2nc(OC[C@@]45CCCN4C[C@H](F)C5)nc(N4CCOC[C@@](C)(O)C4)c23)c1-c1cccs1 [Ex-138]', 'KRAS-G12D (Homo sapiens, UniProt P01116, G12D)', 'nM', 150),
  ('C[C@@]1(O)COCCN(c2nc(OC[C@@]34CCCN3C[C@H](F)C4)nc3sc4c(-c5c(C(F)F)ccc6[nH]ncc56)nccc4c23)C1 [Ex-134]', 'KRAS-G12D (Homo sapiens, UniProt P01116, G12D)', 'nM', 1160),
  ('Cc1cc2[nH]ncc2c(-c2nncc3c2sc2nc(OC[C@@]45CCCN4C[C@H](F)C5)nc(N4CCOC[C@@](C)(O)C4)c23)c1-c1ccco1 [Ex-281]', 'KRAS-G12D (Homo sapiens, UniProt P01116, G12D)', 'nM', 8.24),
  ('Cc1cc2[nH]ncc2c(-c2nccc3c4c(N5CC6CCC(F)(C5)N6)nc(OC[C@@]56CCCN5C[C@H](F)C6)nc4n(C)c23)c1C(F)(F)F (single isomer, unassigned) [Ex-22]', 'KRAS-G12D (Homo sapiens, UniProt P01116, G12D)', 'nM', 2440),
  ('CCc1csc2cc3[nH]ncc3c(-c3nccc4c3sc3nc(OC[C@@]56CCCN5C[C@H](F)C6)nc(N5CCOC[C@@](C)(O)C5)c34)c12 [Ex-168]', 'KRAS-G12D (Homo sapiens, UniProt P01116, G12D)', 'nM', 3.17),
  ('Cc1cc2[nH]ncc2c(-c2nccc3c2sc2nc(OC[C@@]45CCCN4C[C@H](F)C5)nc(N4CCOC[C@@](C)(O)C4)c23)c1C1(C)CC1 [Ex-62]', 'KRAS-G12D (Homo sapiens, UniProt P01116, G12D)', 'nM', 29.8),
  ('Cc1cc2[nH]ncc2c(-c2nccc3c2sc2nc(OC[C@@]45CCCN4C[C@H](F)C5)nc(N4CCOC[C@]5(CCO5)C4)c23)c1C(F)(F)F [Ex-198]', 'KRAS-G12D (Homo sapiens, UniProt P01116, G12D)', 'nM', 36),
  ('CO[C@@H]1CN2CCC[C@@]2(COc2nc(N3CCOC[C@@](C)(O)C3)c3c(n2)sc2c(-c4c(C5CC5)c(Cl)cc5[nH]ncc45)nccc23)C1 [Ex-228]', 'KRAS-G12D (Homo sapiens, UniProt P01116, G12D)', 'nM', 16),
  ('C[C@@]1(O)COCCN(c2nc(OC[C@@]34CCCN3C[C@H](F)C4)nc3sc4c(-c5c(C6=CCC6)c(C(F)(F)F)cc6[nH]ncc56)nccc4c23)C1 [Ex-77]', 'KRAS-G12D (Homo sapiens, UniProt P01116, G12D)', 'nM', 15),
  ('COc1cc2c(sc3nc(OC[C@@]45CCCN4C[C@H](F)C5)nc(N4CCOC[C@@](C)(O)C4)c32)c(-c2c(C(F)(F)F)c(C)cc3[nH]ncc23)n1 [Ex-27]', 'KRAS-G12D (Homo sapiens, UniProt P01116, G12D)', 'nM', 196),
  ('C[C@@]1(O)COCCN(c2nc(OC[C@@]34CCCN3C[C@H](F)C4)nc3sc4c(-c5c(C67CC(C6)C7)ccc6[nH]ncc56)nccc4c23)C1 [Ex-42]', 'KRAS-G12D (Homo sapiens, UniProt P01116, G12D)', 'nM', 135);
